// values below are reported TGI
tested on: OVCAR-8 ovarian; test: NCI tumour cell line growth inhibition, 48 h

Example results:
CC(C)(C)O/N=C/c1cc(NC(=S)c2ccccc2)ccc1Cl : 35.6 µM
CCN(CC)CCCC(Nc1c2ccc(Cl)cc2nc2ccc(OC)cc12)c1ccc(Cl)cc1 (stereo not given) : 2.47 µM
O=C(Nc1ccc(-n2cc(-c3ccncc3)c(-c3ccc(O)c(Cl)c3)n2)cc1)Nc1cc(C(F)(F)F)cc(C(F)(F)F)c1 : 11.7 µM
C#Cc1cccc(NC(=O)/C=C\C(=O)O)c1 : > 100 µM

Input line: Name the reported TGI value associated with the compound `[C-]#[O+].[Cl][Sn]([Cl])[Cl].[Cl][Sn]([Cl])[Cl].[Pt].c1cnc2c(c1)ccc1cccnc12`
Output line: > 100 µM

Input line: Name the reported TGI value associated with the compound `S=C(Sc1ccc(Cl)cc1)Sc1ccc(Cl)cc1`
Output line: 12.6 µM

Input line: Name the reported TGI value associated with the compound `O=C(/C=C\c1ccccc1)Oc1ccc(/C=C2\CCC/C(=C\c3ccc(OC(=O)/C=C\c4ccccc4)cc3)C2=O)cc1`
Output line: > 100 µM

Input line: Name the reported TGI value associated with the compound CC(C)=CC1C(C(=O)OCc2cc3c(cc2Cl)OCO3)C1(C)C (stereo not given)
Output line: > 100 µM

Input line: Name the reported TGI value associated with the compound `O=[N+]([O-])/C=C/c1ccc2ccccc2c1`
Output line: > 21.2 µM

Input line: Name the reported TGI value associated with the compound `COc1ccccc1N=Nc1c(O)ccc2ccccc12`
Output line: > 100 µM
